Source: ChEMBL document CHEMBL4145648

Listed here: molecules with reported pIC50 for Histone acetyltransferase p300 (Homo sapiens, UniProt Q09472).
pIC50: −log10 of the molar value.

| compound | pIC50 |
| --- | --- |
| C=C(C)[C@H](CC=C(C)C)C[C@]12C[C@H](CC=C(C)C)C(C)(C)[C@](CC=C(C)C)(C(=O)C(C(=O)c3ccc(O)c(O)c3)=C1O)C2=O | 6.30 |
| C=C1[C@@H](O)CC[C@]2(C)C3=C4[C@@H](C[C@@H]12)C(=O)CC[C@H]([C@H](C)CC[C@@H](C)C(C)C)[C@@]4(C)CC3 | 5.48 |
| C=C1[C@@H](O)CC[C@@]2(C)[C@H]1C[C@H]1C(=O)CC[C@H]([C@H](C)CC[C@@H](C)C(C)C)[C@@]3(C)CC[C@]24O[C@]143 | 5.06 |
